system under test: Muscarinic acetylcholine receptor M1 (Rattus norvegicus, UniProt P08482)
Sequence (P08482 whole entry): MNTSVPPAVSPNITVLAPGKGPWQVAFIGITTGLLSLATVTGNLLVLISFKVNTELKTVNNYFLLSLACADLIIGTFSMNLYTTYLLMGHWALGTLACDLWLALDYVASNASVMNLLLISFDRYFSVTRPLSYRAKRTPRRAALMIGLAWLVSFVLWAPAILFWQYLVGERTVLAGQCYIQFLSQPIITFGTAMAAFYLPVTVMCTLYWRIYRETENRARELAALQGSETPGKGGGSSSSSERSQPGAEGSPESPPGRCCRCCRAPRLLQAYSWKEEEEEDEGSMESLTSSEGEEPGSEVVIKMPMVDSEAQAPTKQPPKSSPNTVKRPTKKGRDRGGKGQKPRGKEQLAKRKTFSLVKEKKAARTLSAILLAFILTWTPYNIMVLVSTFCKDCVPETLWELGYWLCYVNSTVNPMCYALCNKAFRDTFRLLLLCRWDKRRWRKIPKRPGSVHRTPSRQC
measured attribute: Ki

Req: // lookup Ki for Cc1ccc(O)c([C@H](CCN(C(C)C)C(C)C)c2ccccc2)c1 [TOLTERODINE]
Resp: 1.4 nM
